Kindly state inhibition for each of the entries shown.
Test system: Kaposi's sarcoma herpesvirus LANA C-terminal domain (residues 932-1162) DNA binding
test_description: inhibitors of KSHV C-LANA binding to DNA, primary screen, biochemical, fluorescence polarization, FAM-LBS DNA, MBP-C-LANA, single point (AID 504423);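 note: 0% = neutral control wells and 100% = 4 µM acridine orange control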
stated_conditions: at 9 µM, active compounds read high
Screen size: about 340,000 compounds; about 260 (0.076%) were called active. This is one part of a sample in which actives are shown more often than they occur.
Value expressed in %; do not type the unit.

Record COCCCN(C(=O)Cn1ncc2c(=O)oc3ccc(C)cc3c21)C(C)c1ccncc1 (stereo unspecified) . Reported inhibition: 1.23

Record S=c1[nH]ccn1-c1ccc(Cl)cc1 . Reported inhibition: -5.31

Record CCOc1ccc(N(CC)S(=O)(=O)c2cccc3nsnc23)cc1 . Reported inhibition: 3.87

Record CC(NC(=O)CN(C)S(=O)(=O)c1ccc(F)cc1)C1CC2CCC1C2 (stereo unspecified) . Reported inhibition: -0.793

Record CCN(CC(=O)NC1CCS(=O)(=O)C1)S(=O)(=O)c1ccccc1 (stereo unspecified) . Reported inhibition: -1.52

Record Clc1ccc(-c2nnc(-c3ccccc3)nc2N2CCSCC2)cc1 . Reported inhibition: -0.189

Record CC(=O)c1ccc(N2C(=NC(=O)C(C)C)SC3CS(=O)(=O)CC32)cc1 (stereo unspecified) . Reported inhibition: -0.954

Record Cn1c(N2CCOCC2)c(C=O)c2ccccc21 . Reported inhibition: 0.207

Record CCC(Cc1ccccc1)NC(=O)C1CCCCC1 (stereo unspecified) . Reported inhibition: 1.4

Record CC(OC(=O)/C=C/c1ccccc1)C(=O)Nc1ccc(C(N)=O)cc1 (stereo unspecified) . Reported inhibition: 2.44

Record CCCCC(CC(C)O)c1n[nH]c(=S)n1-c1ccccc1 (stereo unspecified) . Reported inhibition: 0.671

====

Tested on: Kaposi's sarcoma herpesvirus LANA C-terminal domain (residues 932-1162) DNA binding
test_description: inhibitors of KSHV C-LANA binding to DNA, primary screen, biochemical, fluorescence polarization, FAM-LBS DNA, MBP-C-LANA, single point (AID 504423);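 note: 0% = neutral control wells and 100% = 4 µM acridine orange control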
stated_conditions: at 9 µM, active compounds read high
Hit rate of the full screen: of about 340,000 compounds, about 260 (0.076%) were called active. Many of the other results were omitted from the sample, so actives are more common in it than they were.
measurement_label: inhibition (%)
Value expressed in %; do not type the unit.

Record O=C1OC(Cc2ccccc2)C(c2ccccc2)C1=O (stereo unspecified) . Reported inhibition: 0.23

Record Cc1cc(C)c(S(=O)(=O)c2ccc(F)cc2C)c(=O)[nH]1 . Reported inhibition: -0.026

Record CCCN(CC(=O)Nc1ccc(OC)c(OC)c1)CC(=O)Nc1ccc(F)c(F)c1F . Reported inhibition: 3.86

Record COc1ccc(NC(=O)C(CC(C)C)NS(=O)(=O)c2ccc3c(c2)CCN3C(C)=O)cc1OC (stereo unspecified) . Reported inhibition: 1.56

Record CCC(CC)C(=O)Nc1cc(C(=O)OC)cc(C(=O)OC)c1 . Reported inhibition: -1.15

Record CCOc1ccc(CN2CCC(n3nccc3NC(=O)C3CC3)CC2)cc1CO . Reported inhibition: 1.61

Record O=C(COC(=O)COc1cccc(F)c1)NCC1CCCCC1 . Reported inhibition: -1.07

Record COc1cc(OC)cc(-c2c(-c3cccs3)c3cc(-c4ccc(OC)nc4)ccc3n2C)c1 . Reported inhibition: -0.213

Record Cc1cc(C#N)c(SCC(N)=O)nc1-c1ccc(F)cc1 . Reported inhibition: -0.398

Record O=C(NCCCc1ccccc1)C(=O)c1c[nH]c2ccccc12 . Reported inhibition: 1.71

Record Cc1cc(Br)ccc1SCC(=O)OCC(=O)NCc1ccc2c(c1)OCO2 . Reported inhibition: -1.13
